# TARGET: Nuclear receptor subfamily 1 group D member 1 (Homo sapiens) (UniProt P20393)
# Sequence (P20393 whole entry, looked up): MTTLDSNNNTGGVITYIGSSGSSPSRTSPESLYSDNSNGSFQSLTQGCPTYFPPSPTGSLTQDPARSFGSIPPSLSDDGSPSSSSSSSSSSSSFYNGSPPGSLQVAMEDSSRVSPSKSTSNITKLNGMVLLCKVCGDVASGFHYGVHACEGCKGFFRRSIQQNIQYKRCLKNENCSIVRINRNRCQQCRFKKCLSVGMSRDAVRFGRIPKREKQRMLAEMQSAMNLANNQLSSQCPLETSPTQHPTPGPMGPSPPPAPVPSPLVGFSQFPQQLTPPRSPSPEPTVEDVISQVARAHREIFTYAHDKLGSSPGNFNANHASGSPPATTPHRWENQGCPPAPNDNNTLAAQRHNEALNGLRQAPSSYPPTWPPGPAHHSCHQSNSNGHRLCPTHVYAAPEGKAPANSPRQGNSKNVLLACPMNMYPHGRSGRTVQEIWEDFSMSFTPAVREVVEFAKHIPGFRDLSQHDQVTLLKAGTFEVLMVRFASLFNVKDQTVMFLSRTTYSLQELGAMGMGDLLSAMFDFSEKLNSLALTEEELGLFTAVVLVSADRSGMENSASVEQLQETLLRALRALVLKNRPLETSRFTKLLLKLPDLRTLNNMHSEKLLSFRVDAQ
# TEST DETAILS: modulators of Rev-erb alpha DNA binding, primary screen, biochemical, FITC-DNA, fluorescence polarization, uHTS (AID 1259318);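 note: 0% = DMSO wells with 35 nM protein and 100% = DMSO wells with 750 nM protein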
# EXPERIMENTAL CONDITIONS: Rev-erbα–FITC-DNA binding, 90 min, at 10 µM, stronger effect = higher value
In all, about 370,000 compounds went through this assay and about 3,000 (0.81%) were called active. The sample holds actives, similar compounds and a random draw of the others, so the mix is not that of the screen.
METRIC NAME: activity

> print(dat)
                                    compound                                    target  metric.name    endpoint.result
 1  COc1ccc(CCNC(=O)CSc2nc(C)nc3c2oc2ccccc23)cc1OC  Nuclear receptor subfamily 1 group D member 1 (Homo sapiens) (UniProt P20393)     activity  -3.78% (inactive)
 2  Cc1ccc(S(=O)(=O)NCC(=O)N2CCN(c3ccccn3)CC2)cc1  Nuclear receptor subfamily 1 group D member 1 (Homo sapiens) (UniProt P20393)     activity   -1.9% (inactive)
 3  CN1/C(=C\C=C2\N=C(c3ccc(F)cc3)OC2=O)C(C)(C)c2ccccc21  Nuclear receptor subfamily 1 group D member 1 (Homo sapiens) (UniProt P20393)     activity     36.5% (active)
 4             C=CCOc1cccc(CNn2cn[nH]c2=S)c1  Nuclear receptor subfamily 1 group D member 1 (Homo sapiens) (UniProt P20393)     activity     -6% (inactive)
 5  CC(C)C(C)NC(=O)COc1ncnc2ccccc12 (stereo not drawn)  Nuclear receptor subfamily 1 group D member 1 (Homo sapiens) (UniProt P20393)     activity   1.73% (inactive)
 6  N#C/C(=C\c1cccnc1)C(=O)Nc1ccc(SC(F)F)cc1  Nuclear receptor subfamily 1 group D member 1 (Homo sapiens) (UniProt P20393)     activity  -6.19% (inactive)
 7  CSc1ccc(Cl)c(C(=O)OCC(=O)N2CC(C)OC(C)C2)c1 (stereo not drawn)  Nuclear receptor subfamily 1 group D member 1 (Homo sapiens) (UniProt P20393)     activity  -1.82% (inactive)
 8                      Cc1cc(NCc2cccnc2)no1  Nuclear receptor subfamily 1 group D member 1 (Homo sapiens) (UniProt P20393)     activity   2.81% (inactive)
 9             O=C(O)c1ccn(COc2ccc(Br)cc2)n1  Nuclear receptor subfamily 1 group D member 1 (Homo sapiens) (UniProt P20393)     activity  -0.74% (inactive)
10  Cc1nc(N2CCC(C)CC2)c2c(C)c(C(=O)Nc3cc(F)ccc3C)sc2n1  Nuclear receptor subfamily 1 group D member 1 (Homo sapiens) (UniProt P20393)     activity   15.7% (inactive)
11  N#C/C(C(=O)N1CCOCC1)=C1/SC(Cc2ccc(F)cc2)C(=O)N1c1ccccc1 (stereo not drawn)  Nuclear receptor subfamily 1 group D member 1 (Homo sapiens) (UniProt P20393)     activity   5.35% (inactive)
12                       Cc1nonc1OCCn1nnnc1N  Nuclear receptor subfamily 1 group D member 1 (Homo sapiens) (UniProt P20393)     activity   0.14% (inactive)
13  COc1ccc(OCC(=O)Nc2cc(C)c(Cl)cc2OC)c([N+](=O)[O-])c1  Nuclear receptor subfamily 1 group D member 1 (Homo sapiens) (UniProt P20393)     activity   1.26% (inactive)
14  Cc1nc(N2CCN(c3ccccn3)CC2)c2c(C)c(C(=O)Nc3ccc(F)c(Cl)c3)sc2n1  Nuclear receptor subfamily 1 group D member 1 (Homo sapiens) (UniProt P20393)     activity       32% (active)
15  CC(C)C(C)NC(=O)COc1nc2ccccc2nc1N(C)C1CCCCC1 (stereo not drawn)  Nuclear receptor subfamily 1 group D member 1 (Homo sapiens) (UniProt P20393)     activity     62.5% (active)
16  Cc1nn(CCOc2ccc(Br)cc2)c(C)c1[N+](=O)[O-]  Nuclear receptor subfamily 1 group D member 1 (Homo sapiens) (UniProt P20393)     activity   3.89% (inactive)
17  COc1ccccc1CCNC(=O)C1CCN(c2nc(C)cc(C)n2)CC1  Nuclear receptor subfamily 1 group D member 1 (Homo sapiens) (UniProt P20393)     activity   2.47% (inactive)
18  Cc1cc(/C=C(/C#N)C(=O)Nc2ccc(Cl)cc2)c(C)n1-c1cccnc1  Nuclear receptor subfamily 1 group D member 1 (Homo sapiens) (UniProt P20393)     activity     23.3% (active)
19    COc1cc(OC)cc(C(=O)NCCSCc2ccc(Cl)cc2)c1  Nuclear receptor subfamily 1 group D member 1 (Homo sapiens) (UniProt P20393)     activity   -1.8% (inactive)
20  CO/N=C(\C(=O)N[C@@H]1C(=O)N2C(C(=O)O)=CCS[C@H]12)c1csc(N)n1  Nuclear receptor subfamily 1 group D member 1 (Homo sapiens) (UniProt P20393)     activity  -1.64% (inactive)
21   CCOC(=O)c1cc(-c2ccc(Cl)s2)nc2c1c(C)nn2C  Nuclear receptor subfamily 1 group D member 1 (Homo sapiens) (UniProt P20393)     activity   11.4% (inactive)
22             Cc1cc(NC(=O)COc2ccccc2C#N)no1  Nuclear receptor subfamily 1 group D member 1 (Homo sapiens) (UniProt P20393)     activity   5.64% (inactive)
23  COc1ccc(CCNC(=O)CSc2nnc(-c3cccc(F)c3)o2)cc1OC  Nuclear receptor subfamily 1 group D member 1 (Homo sapiens) (UniProt P20393)     activity   6.95% (inactive)
